Reported IC50 values for the following compounds.
Molecular target: Mannose-6-phosphate isomerase (Homo sapiens, UniProt P34949)
Sequence (P34949 whole entry): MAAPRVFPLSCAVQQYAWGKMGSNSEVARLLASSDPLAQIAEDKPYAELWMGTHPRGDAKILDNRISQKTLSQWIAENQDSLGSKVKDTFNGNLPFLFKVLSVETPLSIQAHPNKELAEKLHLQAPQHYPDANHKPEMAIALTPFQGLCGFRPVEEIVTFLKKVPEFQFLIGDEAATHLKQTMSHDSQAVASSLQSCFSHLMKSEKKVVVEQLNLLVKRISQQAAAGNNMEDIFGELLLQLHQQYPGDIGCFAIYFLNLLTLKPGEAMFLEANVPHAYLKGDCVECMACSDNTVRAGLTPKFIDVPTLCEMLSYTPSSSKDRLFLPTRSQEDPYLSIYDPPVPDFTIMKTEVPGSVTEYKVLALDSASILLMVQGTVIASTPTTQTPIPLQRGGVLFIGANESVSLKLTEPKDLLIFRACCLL
Experiment: human PMI inhibitors, high substrate, primary screen, biochemical, fluorescence intensity, high mannose 6-phosphate (AID 1220)

Worked cases, IC50 given:
Compound | Recorded measurement
CCOC(=O)c1c(C)oc2c1c(/C=N/CC1CCCO1)c(O)c1ccccc12 (centres undefined) | > 50 µM (not active)
CC(=O)Nc1ccc2c(c1)C(C)(C)C(C)N2C (centres undefined) | > 50 µM (not active)
Oc1c(CN2CCN(c3ccccn3)CC2)cc(Cl)c2cccnc12 | > 50 µM (not active)

Kindly consider the entry below.
Return value of IC50 for input Cc1c(C(=O)NC(C)C)oc2c1-c1n[nH]cc1CC2 , no commentary.
> 50 µM (not active)

====

Target: Kappa-type opioid receptor (Homo sapiens, UniProt P41145)
Sequence (P41145 whole entry): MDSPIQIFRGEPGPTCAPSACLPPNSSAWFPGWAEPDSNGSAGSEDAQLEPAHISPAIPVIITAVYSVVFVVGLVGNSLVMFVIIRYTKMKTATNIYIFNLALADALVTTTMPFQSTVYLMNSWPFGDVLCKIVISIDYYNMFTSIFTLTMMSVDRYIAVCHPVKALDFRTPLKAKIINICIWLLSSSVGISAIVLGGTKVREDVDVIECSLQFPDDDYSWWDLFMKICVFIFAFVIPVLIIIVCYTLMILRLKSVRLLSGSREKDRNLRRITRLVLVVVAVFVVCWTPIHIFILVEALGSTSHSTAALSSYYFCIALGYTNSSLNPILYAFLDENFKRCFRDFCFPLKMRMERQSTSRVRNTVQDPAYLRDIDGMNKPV
Format: functional
pIC50: −log10 of the molar value.
Attribute measured: pIC50

Give the measured pIC50 for N=C1SCC(=O)N1c1ncc(Cc2ccccc2Cl)s1
< 4.49

====

Target: Insulin-degrading enzyme (Homo sapiens)
Sequence (P14735 whole entry): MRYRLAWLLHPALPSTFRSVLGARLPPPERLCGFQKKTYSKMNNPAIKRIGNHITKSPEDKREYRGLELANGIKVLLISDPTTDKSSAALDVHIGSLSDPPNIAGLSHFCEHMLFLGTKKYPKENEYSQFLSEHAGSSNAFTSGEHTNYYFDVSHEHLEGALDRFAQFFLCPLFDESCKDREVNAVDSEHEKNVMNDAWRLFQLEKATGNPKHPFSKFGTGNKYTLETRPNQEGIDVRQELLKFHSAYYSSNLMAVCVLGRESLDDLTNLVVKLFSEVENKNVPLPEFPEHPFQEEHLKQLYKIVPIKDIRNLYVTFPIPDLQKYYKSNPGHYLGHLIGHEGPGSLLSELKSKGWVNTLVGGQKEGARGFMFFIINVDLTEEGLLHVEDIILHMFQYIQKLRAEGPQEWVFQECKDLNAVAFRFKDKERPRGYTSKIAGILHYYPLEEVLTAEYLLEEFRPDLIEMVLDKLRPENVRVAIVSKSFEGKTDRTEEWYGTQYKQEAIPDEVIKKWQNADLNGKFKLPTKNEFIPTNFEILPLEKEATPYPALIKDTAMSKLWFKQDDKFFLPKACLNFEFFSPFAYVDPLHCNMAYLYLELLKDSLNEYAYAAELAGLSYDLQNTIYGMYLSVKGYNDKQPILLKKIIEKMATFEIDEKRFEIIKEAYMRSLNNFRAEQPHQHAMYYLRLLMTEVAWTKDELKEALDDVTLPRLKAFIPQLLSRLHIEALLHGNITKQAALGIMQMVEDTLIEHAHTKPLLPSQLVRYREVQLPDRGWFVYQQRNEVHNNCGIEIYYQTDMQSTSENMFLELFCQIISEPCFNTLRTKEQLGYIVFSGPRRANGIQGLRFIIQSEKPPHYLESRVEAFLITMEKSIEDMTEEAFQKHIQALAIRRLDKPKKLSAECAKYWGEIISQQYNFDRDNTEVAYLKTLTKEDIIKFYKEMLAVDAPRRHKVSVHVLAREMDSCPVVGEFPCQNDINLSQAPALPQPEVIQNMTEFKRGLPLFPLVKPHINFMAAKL
Assay: activators of endogenous IDE in HEK cells, dose response, cell-based, fluorescence polarization (AID 588439)
Type: functional
Calls of active or inactive are those of the source.
Log the outcome using a class from active, inactive

What was the test verdict on CCc1cc(Cn2nc(C(=O)O)cc2-c2ccccc2)on1 ?
inactive

Outcome? COC(=O)C1=C(C)N(Cc2ccccc2)C(NCc2cccc(C(F)(F)F)c2)=N[C@H]1c1cccc(C(F)(F)F)c1
active

Could you check what this test reported for NC(=O)c1ccc(NC(=O)COC(=O)c2c3c(nc4ccccc24)/C(=C\c2ccc4c(c2)OCO4)CCC3)cc1 ?
inactive

Please indicate how the test categorized O=C(c1ccccc1)N1CCN(c2ccc([N+](=O)[O-])c(NCc3cccnc3)c2)CC1 .
inactive

====

Known EC50 of a selection of compounds
Tested on: Streptococcus sp. 'group A'
Assay: growth inhibition of control SK(-) GAS strain, dose response, counter-screen for streptokinase expression inhibitor project, luminescence, kanamycin, BacTiterGlo, confirmation (AID 1900)
Format: functional, organism-based
Activity calls are given as the source filed them.

Compound | EC50
NNC(=O)CSc1nc(-c2ccccc2)nc2c1CCCC2 | > 150 µM (not active)
Cc1ccc(Nc2nc3nonc3nc2O)cc1Cl | 3.04 µM (active)
COc1cc2ccccc2cc1C(=O)Nc1ccc(NC(=O)c2cccs2)cc1 | 11.5 µM (active)

In one line, give reported EC50 of the entry CCOC(=O)C1=NN(C(=O)c2ccc(OC)cc2)C(O)(c2ccc(Cl)cc2)C1 (configuration not stated) .
7.85 µM (active)

Output EC50 of CC12CCC(CC1)C(C)(C)O2
> 150 µM (not active)

Query EC50 for CCc1ccc(/C=C/C(=O)c2cc(Br)ccc(=O)c2O)cc1
1.8 µM (active)

State its EC50 for this compound: COc1ccc(CCNc2nc(-c3ccccn3)cs2)cc1OC
14.3 µM (active)

====

Reported IC50 values follow for various compounds
Molecular target: Glucose-6-phosphate 1-dehydrogenase (Homo sapiens, UniProt P11413)
Sequence (P11413 whole entry): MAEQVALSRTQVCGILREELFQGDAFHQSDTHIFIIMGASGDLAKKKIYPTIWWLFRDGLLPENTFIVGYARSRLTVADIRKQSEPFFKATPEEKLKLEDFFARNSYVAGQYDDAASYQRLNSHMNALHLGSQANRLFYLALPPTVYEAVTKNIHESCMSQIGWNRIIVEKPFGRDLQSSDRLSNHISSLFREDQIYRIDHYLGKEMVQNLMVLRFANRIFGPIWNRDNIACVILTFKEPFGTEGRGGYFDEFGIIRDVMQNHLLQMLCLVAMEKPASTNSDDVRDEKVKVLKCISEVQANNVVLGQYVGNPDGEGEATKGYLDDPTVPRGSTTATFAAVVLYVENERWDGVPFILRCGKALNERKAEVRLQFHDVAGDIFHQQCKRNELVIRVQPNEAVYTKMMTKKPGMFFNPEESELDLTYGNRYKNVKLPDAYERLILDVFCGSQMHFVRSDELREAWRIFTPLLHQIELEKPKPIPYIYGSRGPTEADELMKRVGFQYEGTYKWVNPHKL
Experiment: human G6PD enzyme inhibitors, dose response, selectivity assay for P. falciparum G6PD inhibitor project, biochemical, fluorescence (AID 504792)
Assay type: functional
Activity calls are given as the source filed them.

Some solved entries appear below for comparison.
Smi | Measured on | Recorded measurement
C/C(Cn1nnc([N+](=O)[O-])n1)=N\NC(=O)c1ccc(O)cc1O | Glucose-6-phosphate 1-dehydrogenase (Homo sapiens, UniProt P11413) | > 80 µM (inactive)
CCOc1ccccc1NS(=O)(=O)c1c(C)noc1C | Glucose-6-phosphate 1-dehydrogenase (Homo sapiens, UniProt P11413) | > 80 µM (inactive)
c1ccc(OCc2nnc3n2N=C(c2ccccc2)CS3)cc1 | Glucose-6-phosphate 1-dehydrogenase (Homo sapiens, UniProt P11413) | > 80 µM (inactive)

Kindly review the next compound as well.
Report measured IC50 on Glucose-6-phosphate 1-dehydrogenase (Homo sapiens, UniProt P11413); entry: c1cc2c(cc1NC1CCCCCC1)OCO2
> 80 µM (inactive)

====

Molecular target: Small ubiquitin-related modifier 1 (Homo sapiens, UniProt P63165)
Sequence (P63165 whole entry): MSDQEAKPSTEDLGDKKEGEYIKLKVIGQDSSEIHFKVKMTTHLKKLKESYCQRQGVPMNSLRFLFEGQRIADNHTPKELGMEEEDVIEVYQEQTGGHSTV
Assay: inhibitors of SUMO1 partner interactions, dose response, biochemical, FRET (AID 624383)
Type: functional
Conditions: read-out: IC50_Mean
Calls of active or inactive are those of the source.
Attribute measured: IC50

Compound | Measured on | Attribute measured | Recorded measurement
O=C(NCCN1CCC(n2c(O)nc3ccccc32)CC1)c1cccc2c1-c1ccccc1C2=O | Small ubiquitin-related modifier 1 (Homo sapiens, UniProt P63165) | IC50 | 17.9 µM (active)
O=C(N/N=C/c1ccoc1)c1cc(O)cc(O)c1 | Small ubiquitin-related modifier 1 (Homo sapiens, UniProt P63165) | IC50 | 12.4 µM (active)
Cc1ccc(Cl)cc1Nc1nc(-c2sc(NC(=O)C(C)(C)C)nc2C)cs1 | Small ubiquitin-related modifier 1 (Homo sapiens, UniProt P63165) | IC50 | 9.1 µM (active)

Write IC50 of Cc1nc2ccc3nc(NC(=O)c4ccco4)sc3c2s1 ; system used: Small ubiquitin-related modifier 1 (Homo sapiens, UniProt P63165)
12.1 µM (active)

Tell me IC50 of COC(=O)c1c(NC(=O)COC(=O)c2ccc(NC(=O)CC#N)cc2)sc2c1CCCCC2 when tested on Small ubiquitin-related modifier 1 (Homo sapiens, UniProt P63165).
6.24 µM (active)

Determine reported IC50 for CCC(CO)Oc1cc(NC(=O)c2ccccc2C)c2ncn(C(C)C)c2c1 (stereo unspecified) ; test system: Small ubiquitin-related modifier 1 (Homo sapiens, UniProt P63165).
17.6 µM (active)

====

Target: Caspase-6 (Homo sapiens, UniProt P55212)
Sequence (P55212 whole entry): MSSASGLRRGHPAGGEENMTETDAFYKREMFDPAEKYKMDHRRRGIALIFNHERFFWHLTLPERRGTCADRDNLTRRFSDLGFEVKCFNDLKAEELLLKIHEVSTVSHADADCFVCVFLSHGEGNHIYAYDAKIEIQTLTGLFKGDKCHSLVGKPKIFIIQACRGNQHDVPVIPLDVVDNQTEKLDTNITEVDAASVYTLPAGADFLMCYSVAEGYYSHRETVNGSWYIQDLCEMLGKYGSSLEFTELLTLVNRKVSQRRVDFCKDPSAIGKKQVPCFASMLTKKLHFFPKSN
Experiment: human caspase-6 inhibitors, dose response, biochemical, VEID-R110 fluorescence, cherry-pick (AID 720632)
Activity calls are given as the source filed them.
Attribute measured: AC50

Worked examples, 3 compounds total:
Smi | AC50
O=C1c2cc([N+](=O)[O-])cc3cc([N+](=O)[O-])cc(c23)C(=O)N1c1ccccn1 | 15.3 µM (active)
CCCCNC(=O)c1nc(C2CCNCC2)oc1-c1cccc(C(F)(F)F)c1 | 1.6 µM (active)
Nc1ccc(Cc2ccc(N)c(C(=O)O)c2)cc1C(=O)O | 37.8 µM (active)

Please report the measured AC50 for Cc1ccc(C)c(NC(=O)CN(C)C(=O)c2cccc(-n3cccc3)c2)c1 tested on Caspase-6 (Homo sapiens, UniProt P55212).
4.58 µM (active)

Give Caspase-6 (Homo sapiens, UniProt P55212) AC50 for the following compound: O=C(O)c1ccc(-n2cccc2/C=N\NC(=O)c2cc3cc(Br)ccc3o2)cc1
0.801 µM (active)
